Entries below carry reported MIC on Klebsiella pneum. 8085.
Please reply with the bare figure in µg/mL and do not write the unit itself.

Which MIC value belongs to CN1CCN(c2c(F)cc3c(=O)c(C(=O)O)cn(-c4ccc(F)cc4)c3c2F)CC1 [Example 1] ?
0.125

Which MIC value belongs to CC1CN(c2c(F)cc3c(=O)c(C(=O)O)cn(-c4ccc(F)cc4)c3c2F)CCN1 (stereo not shown) [Example 2] ?
0.06

Which MIC value belongs to CCn1cc(C(=O)O)c(=O)c2cc(F)c(N3CCNCC3)cc21 [Norfloxacin, reference compound] ?
0.25

====

Kindly supply the reported MIC values for the records listed here.
Please reply with the bare figure in µg/mL and do not write the unit itself.

Quick check: MIC on E. coli Neum., item CN1CCN(c2c(F)cc3c(=O)c(C(=O)O)cn(-c4ccc(F)cc4)c3c2F)CC1 [Example 1] ?
0.125

Quick check: MIC on E. coli Neum., item CCn1cc(C(=O)O)c(=O)c2cc(F)c(N3CCNCC3)cc21 [Norfloxacin, reference compound] ?
0.125

====

Kindly supply the reported MIC values for the records listed here.
Test system: Streptococcus faecalis 27101
Assay: Minimum inhibitory concentration, agar dilution test (Denley Multipoint inoculator, Isosensitest medium)
Assay type: cell-based
Conditions: Enterococcus faecalis
Record the result as number plus unit.

Which MIC value belongs to CC1CN(c2c(F)cc3c(=O)c(C(=O)O)cn(-c4ccc(F)cc4)c3c2F)CCN1 (stereo not shown) [Example 2] ?
4 µg/mL

Which MIC value belongs to CN1CCN(c2c(F)cc3c(=O)c(C(=O)O)cn(-c4ccc(F)cc4)c3c2F)CC1 [Example 1] ?
4 µg/mL

Which MIC value belongs to O=C(O)c1cn(-c2ccc(F)cc2)c2c(F)c(N3CCNCC3)c(F)cc2c1=O [Example 3] ?
4 µg/mL

Which MIC value belongs to CCn1cc(C(=O)O)c(=O)c2cc(F)c(N3CCNCC3)cc21 [Norfloxacin, reference compound] ?
1 µg/mL
